- method: HUVEC growth inhibition – cell-based, human, primary screen (AID 575);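 further: 100% = median of untreated cell wells with 0.1% DMSO on each plate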
- assay-context: HUVEC proliferation, CellTiter-Glo luminescence, 72 h; at 10 µM; stronger effect = lower value
// NB: equality with 90% counts as false; only viability strictly below is true

* COc1ccc(-c2noc(CN(C(=O)C(C)(C)C)C(C)C)n2)cc1 | false
* O=C(c1ccccc1)N1CCCCC(Sc2nnnn2-c2ccccc2)C1=O (configuration not stated) | true
* CCc1ccc2nc(NC(=O)CSCc3c(C)noc3C)sc2c1 | true
* CC(=O)CCc1c(C)[nH]c2ccccc2c1=O | false
* O=C(CSCc1cnn(-c2ccccc2)c1-n1cccc1)NCC1CCCO1 (configuration not stated) | false
* CC(C)(C)OC(=O)N1CCC(C(=O)N[C@H](Cc2ccccc2)C(=O)O)CC1 | false
* O=C1CC(N2CCOCC2)C(=O)N1c1ccccc1Cl (configuration not stated) | true
* O=C(Nc1ccc(Cl)cc1C(=O)Nc1ccncc1)c1ccco1 | true
* Cc1ccc(C2Nc3ccccc3-c3nc4ccccc4n32)o1 (configuration not stated) | true

----------
- method: reducers of endogenous Her2 protein level, primary screen, SKBR3 breast tumor cells, AlphaScreen, ATP viability (AID 461);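 further: percent of carrier control wells set as 100% viability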
- assay-context: 18-24 h, measured here: SKBR3 viability, ATP luminescence, at 10 µM
property-measured: viability (%)

- COC(=O)c1ccccc1NC(=O)c1ccc(COc2ccccc2)o1: 71.5
- Clc1ccc(CSc2nnc(Cn3cnc4ccccc43)o2)cc1: 74.5
- COc1ccccc1Cn1nnc2c(=O)[nH]c(C3CCN(C(=O)c4ccccc4Cl)CC3)nc21: 93
- CC(CCc1ccccc1)NCc1ccncc1 (stereo unspecified): 102
- CSc1nc2c(ccc3ccccc32)o1: 114
- CCn1c(=O)c(C(=O)NCc2ccc(OC)cc2)c(O)c2ccccc21: 86.5
- CCSc1nc(C)nc2c1oc1ccccc12: 78.5
- C=CCn1c(SCC(=O)c2cc(C)n(C(C)COC)c2C)nc2sc(C)c(C)c2c1=O (stereo unspecified): 97.5
- Cc1ccc(F)cc1NC(=O)Cc1nn(C)c(=O)c2ccccc12: 96.5
- O=C(Nc1ccccc1N1CCCCC1)c1ncoc1-c1ccc(F)cc1: 115
- Cc1ccc(CNC(=O)C2CCN(S(=O)(=O)c3c(C)noc3C)CC2)cc1: 100

----------
- method: reversal of MRP1-mediated doxorubicin resistance, pilot screen, H69AR cells, doxorubicin co-treatment (AID 601)
- assay-context: H69AR cells + 2 uM doxorubicin, CellTiter-Glo, 72 h; measured here: viability with 2 uM doxorubicin; at 10 µM; stronger effect = lower value
property-measured: viability (%)

- COCCSc1ccccc1C(=O)Nc1cc(C)on1: 89.8
- N#CCCn1ccc(NC(=O)c2ccc(Cl)cc2)n1: 88.1
- CCCCn1c(SCC(=O)Nc2ccc(OC)cc2)nc2ccc(N3CCOCC3)cc2c1=O: 89
- COc1ccc(NC(=O)c2cc(C(C)C)on2)c(OC)c1: 90.6
- CCCn1c(=N)n(CC(=O)c2cccs2)c2ccccc21: 92.3
- COc1ccc(S(=O)(=O)CCC(=O)O)cc1: 95.7
- CC(=O)c1c(C)nn(CC(O)COc2ccc3c(c2)CCC3)c1C (stereo not given): 83.9
- O=C(CSc1nnc(-c2cccnc2)o1)Nc1ccccn1: 86.5
- O=C(CN1C(=O)NC2(CCCCCC2)C1=O)N1CCC(Cc2ccccc2)CC1: 90.9
- CCCc1[nH]nc2c1C(c1cccc(OC(=O)c3ccco3)c1)C(C#N)=C(N)O2 (stereo not given): 94.1
- C=CCOc1ccc(/C(O)=C2\C(=O)C(=O)N(CCOC)C2c2cccnc2)cc1 (stereo not given): 88.4
- O=C(O)C1C2C=CC(O2)C1C(=O)NCc1ccc(Cl)cc1 (stereo not given): 96.6
- COCn1c(COc2ccccc2)nc2ccccc21: 84.8
- O=C(NCc1ccccn1)c1cccs1: 92.8
- COc1ccccc1NC(=O)NC1(C(=O)N2CCC(O)CC2)CCCCC1: 109
- Cc1oc(-c2ccccc2)cc1C(N)=O: 80.3
- CCCCn1nc(C(=O)N2CCc3ccccc32)c2ccccc2c1=O: 105
- COc1cccc2cc(C(=O)C3=C(O)C(=O)N(CCCN4CCOCC4)C3c3ccncc3)oc12 (stereo not given): 99.6
- CCOc1ccc2cc(C#N)c(SCC(=O)N3CCOCC3)nc2c1: 42.8
- COc1ccc(OCCOC(=O)c2cccs2)cc1: 89.5
- O=c1cc(-c2ccc(Cl)cc2)[nH][nH]1: 85.9
- Cc1cc2ncc(C(=O)Nc3ccccc3)c(C)n2n1: 86.8
- Cc1cc(NC(=O)CCCN2C(=O)c3cccnc3C2=O)no1: 102
- O=C(CSc1nc2[nH]ncc2c(=O)n1-c1ccccc1Br)NCc1ccco1: 77.8
- CCn1cc(C2=NOC(C(=O)Nc3cc(C)nn3-c3ccccc3)C2)c(C)n1 (stereo not given): 93
